Where these numbers come from: PubChem BioAssay (NCI)

Tested on: ACHN renal
test_description: NCI-60 one-dose screen, 48 h (100 = growth as untreated, 0 = no growth, -100 = all killed)
stated_conditions: 10 µM unless noted
Compounds without any hit were thinned out: in the full panel of roughly 83,000, 20% have a hit.
Would you please tag the item 1 when its growth is 60% or above, and -1 when it is below?

molecule: COc1cc2cc(Oc3ccc(NC(=O)Nc4cc(C(F)(F)F)cc(C(F)(F)F)c4)cc3)c(C)nc2cc1OCCN(C)C
class_label: 1
//
molecule: c1cncc(-c2cn3nc(-c4c[nH]c5ccccc45)sc3n2)c1
class_label: 1
//
molecule: COc1ccc(-c2nc3cc(Cl)c(Cl)cc3n2CC(=O)N=Nc2c(O)[nH]c3ccccc23)cc1
class_label: -1
//
molecule: O=c1[nH]c(CCl)nc2c1cnn2-c1ccccc1
class_label: 1
//
molecule: Nc1nc(N)c2c(n1)NC(c1ccccc1)CC(c1ccc(Nc3nc(NCCO)nc(Nc4ccc(Cl)cc4)n3)cc1)=N2 (stereo not given)
class_label: 1
//
molecule: CCOC(=O)/C=c1\sc2n(c1=O)C1C(NN=2)N(CC)C(=O)N1CC (stereo not given)
class_label: -1
//
molecule: CNC(=O)c1cc(N2CCc3cc(NC(=O)Nc4ccc(Cl)c(Cl)c4)ccc32)ccn1
class_label: 1
//
molecule: C=C1C(=O)O[C@@H]2C[C@@H](C)/C=C\C(=O)[C@](C)(OC(C)=O)C[C@H](OC(=O)/C(C)=C\C)[C@@H]12
class_label: -1
//
molecule: CCC(=O)Nc1ccc(-c2nc(-c3cccc(O)c3)c(-c3ccnc(Br)c3)[nH]2)cc1
class_label: 1
//
molecule: CCN1CCN(c2cc(C(=O)Nc3nc4ccc(Oc5ccnc(C(=O)NC)c5)cc4s3)cc(C(F)(F)F)c2)CC1
class_label: 1
//
molecule: C[C@@H]1C[C@H]2C(=O)OCC(NC(=O)[C@H](Cc3cc(F)cc(F)c3)NC(=O)Nc3ccc(Cl)cc3F)C(=O)N3CCC[C@H]3C(=O)N3CCCC[C@H]3C(=O)N[C@@H](C)C(=O)N2C1 (stereo not given in full)
class_label: -1
//
molecule: COc1ccc(-c2cc(-c3cccc4ccccc34)n3c(n2)nc2ccccc23)cc1OC
class_label: -1
//
molecule: CCn1c2ccc(/C=N/OCCCN(C)C)cc2c2cc(/C=N/OCCCN(C)C)ccc21
class_label: -1
//
molecule: Cc1cn(-c2cc(NC(=O)c3cncc(C#Cc4cnc5ccc(OCCCS(C)(=O)=O)nn45)c3)cc(C(F)(F)F)c2)cn1
class_label: -1
//
molecule: CCC(=O)Nc1cc(Nc2cc(NC3CC3)n3ncc(C#N)c3n2)ccc1C
class_label: -1
//
molecule: C/C=C/[C@@H]1C=C[C@@H]2C[C@H](C)CC[C@H]2[C@]1(C)/C(O)=C1/C(=O)[C@H](CO)N(C)C1=O
class_label: 1
//
molecule: COc1cc2c3c(n(CCCNCC4CC4)c(=O)c2cc1OC)-c1cc2c(cc1C3=O)OCO2
class_label: -1
//
molecule: COc1ccc(-c2nnc(SCc3ccc(O)c4ncccc34)o2)cc1
class_label: -1
//
molecule: CCOC(=O)Nc1cccc(-n2cnc3cc(-c4ccc(O)cc4)ccc32)c1
class_label: -1
//
molecule: O=C(NNc1nc2cc(F)c(F)cc2n2cccc12)c1ncccn1
class_label: -1
//
molecule: CC1=CC(=O)CC(C)(C)[C@@]1(O)/C=C/C(C)=C\C(=O)O
class_label: -1
//
molecule: COc1ccc(Cn2cc3c(c2-c2ccccc2)CCCc2cnoc2-3)cc1[N+](=O)[O-]
class_label: 1
//
molecule: CCN1CCN(Cc2ccc(C(=O)Nc3nc4ccc(Oc5ccnc(C(=O)NC)c5)cc4s3)cc2C(F)(F)F)CC1
class_label: -1
//
molecule: N#Cc1ccc(S(=O)(=O)Nc2ccc(-c3cnc(N)[nH]3)cc2)cc1
class_label: 1

---

Tested on: SF-268 CNS
test_description: NCI-60 one-dose screen, 48 h (100 = growth as untreated, 0 = no growth, -100 = all killed)
stated_conditions: 10 µM unless noted
Compounds without any hit were thinned out: in the full panel of roughly 83,000, 20% have a hit. Active and inactive are the calls of the source. Rule for the calls: active = growth percent below 10; inactive = the rest.
Below, each entry is listed alongside its reported growth.

compound_structure: Cc1ccc(S(=O)(=O)N/N=C/c2cn(-c3ccc(F)cc3)nc2-c2ccc(S(C)(=O)=O)cc2)cc1
system_under_test: SF-268 CNS
growth: 104% (inactive)
--
compound_structure: O=S(=O)(NCCCNc1nccc(-n2cnc3ccccc32)n1)c1ccc(F)cc1
system_under_test: SF-268 CNS
growth: 86.3% (inactive)
--
compound_structure: O=S(=O)(Nc1ccc(I)c(Cl)c1)c1ccc(-c2cnc(C3CC3)o2)cc1
system_under_test: SF-268 CNS
growth: 59.4% (inactive)
--
compound_structure: CC(=O)NC(C)(C)C(=O)N1CCC[C@H]1C(=O)NC(C)(C)C(=O)N[C@@H](C)C(=O)NC(C)(C)C(=O)N[C@@H](C)C(=O)N[C@@H](CCC(N)=O)C(=O)NC(C)(C)C(=O)N[C@H](C(=O)NC(C)(C)C(=O)NCC(=O)N[C@@H](CC(C)C)C(=O)NC(C)(C)C(=O)N1CCC[C@H]1C(=O)N[C@H](C(=O)NC(C)(C)C(=O)NC(C)(C)C(=O)N[C@@H](CCC(N)=O)C(=O)N[C@@H](CCC(N)=O)C(=O)N[C@H](CO)Cc1ccccc1)C(C)C)C(C)C
system_under_test: SF-268 CNS
growth: 64.3% [4.25 µM] (inactive)

---

System: HS 578T breast
test_description: NCI-60 one-dose screen, 48 h (100 = growth as untreated, 0 = no growth, -100 = all killed)
stated_conditions: 10 µM unless noted
This is part of a sample that, as a whole, favours compounds with a hit. Of some 83,000 tested, about 20% had one in any assay.
We label by threshold. Values of growth strictly beneath 70% are fulfilled. Values of 70% and up are not fulfilled.

molecule: CC(C)=CCc1c2c(c(O)c3c1O[C@]14C(=C[C@@H]5C[C@H]1C(C)(C)O[C@@]4(C/C=C(/C)C(=O)O)C5=O)C3=O)CC(O)C(C)(C)O2 (stereo not given in full)
class_label: fulfilled

molecule: CN1CCN(c2ccc(NC(=O)Nc3ccc4c(ccn4-c4cccc(C(N)=O)n4)c3)cc2C(F)(F)F)CC1
class_label: fulfilled

molecule: CCCCCCNC(=O)Oc1ccc(/C(=C(\C)c2ccc(Cl)cc2)c2ccc(OCCN(C)C)cc2)cc1
class_label: not fulfilled

molecule: O=C(/C=C/c1cn(-c2ccccc2)nc1-c1ccc(Cl)cc1)c1cc2ccccc2oc1=O
class_label: fulfilled

---

Tested on: T-47D breast
test_description: NCI-60 one-dose screen, 48 h (100 = growth as untreated, 0 = no growth, -100 = all killed)
stated_conditions: 10 µM unless noted
Experimental: Growth inhibition of the T-47D human tumor cell line is measured as a screen for anti-cancer activity. Cells are grown in 96 well plates and exposed to the test compound for 48 hours. Compounds are tested at a single concentration, which is 10^-5 M for most compounds. The reported endpoint is percent growth (GI% or GIPRCNT), where numbers from 0 - 100% represent growth inhibition, and numbers from -100% - 0 represent cell death. For example, a value of 40 represents 60% growth inhibition. […]
This is part of a sample that, as a whole, favours compounds with a hit. Of some 83,000 tested, about 20% had one in any assay.
Please use YES for growth under 30% and NO for everything else, ties included.

compound: N#C/C(=C\c1ccc2ccccc2c1)C(=O)Nc1sc2c(c1C#N)CCC2
class_label: NO
//
compound: O=S(=O)(Nc1ccc(-n2cnc3cc(-c4ccc(O)cc4)ccc32)cc1)C1CC1
class_label: NO
//
compound: C#C[C@]1(O)CC[C@H]2[C@@H]3CC=C4c5sc(C6CCOCC6)nc5CC[C@]4(C)[C@H]3CC[C@@]21C
class_label: NO
//
compound: O=C(NNc1nc2cc(F)cc(F)c2n2cccc12)c1ncccn1
class_label: YES
//
compound: O=C(Nc1cc(F)cc2cccnc12)c1cnc(N2CCOCC2)cn1
class_label: YES
//
compound: O=C(C[n+]1ccnc2ccccc21)c1ccc(O)c(O)c1
class_label: NO
//
compound: Oc1ccc(-c2nnc(SCc3ccc(O)c4ncccc34)o2)cc1
class_label: YES
//
compound: O=C1NC(=O)/C(=C/c2ccc(OCc3cc4ccccc4nc3Cl)cc2)S1
class_label: NO
//
compound: CS(=O)(=O)c1ccc2c(c1)c1c(n2S(=O)(=O)c2ccc(Cl)cc2)CCCC1
class_label: YES
//
compound: CCCCCCNC(=O)Oc1ccc(/C(=C(/C)c2ccc(OC)cc2)c2ccc(OCCN3CCCC3)cc2)cc1
class_label: NO
//
compound: Cc1cn(-c2cc(NC(=O)c3cncc(C#Cc4cnc5ccc(O[C@@H]6CCOC6)nn45)c3)cc(C(F)(F)F)c2)cn1
class_label: YES
//
compound: O=C1/C(=C/c2ccc([N+](=O)[O-])cc2)SC(=Nc2ccccc2)N1Nc1ccccc1
class_label: NO
//
compound: O=C1c2c(c3c4cc(O)ccc4oc3c3[nH]c4ccccc4c23)C(=O)N1O
class_label: YES
//
compound: CCCCCCCCNC(=O)c1ccc(Cn2c(CCCC)nc3c(N)nc4ccccc4c32)cc1
class_label: YES
//
compound: O=C1c2c(c3c4cccnc4[nH]c3c3ccc4ccccc4c23)C(=O)N1CCN1CCOCC1
class_label: NO
//
compound: COc1ccccc1/C=C/C(=O)c1nnn(-c2ccc(C(=O)O)cc2)c1C
class_label: NO
//
compound: CN1CCN(c2ccc(NC(=O)Nc3ccc4c(ccn4-c4cccc(C(N)=O)n4)c3)cc2C(F)(F)F)CC1
class_label: NO
//
compound: CC1OC(O[C@@H]2[C@H](O)C(CO)OC(O[C@H]3COC(O[C@H]4CC[C@]5(C)[C@H]6CC[C@]78OC[C@@]9(CCC(C)(C)C[C@H]97)[C@H](O)C[C@@]8(C)[C@]6(C)CC[C@H]5C4(C)C)[C@@H](OC4OC(CO)[C@@H](O)[C@@H](O)[C@@H]4O)[C@@H]3O)[C@H]2OC2OC[C@@H](O)[C@@H](O)[C@@H]2O)[C@@H](O)[C@@H](O)[C@H]1O (stereo partly drawn)
class_label: YES
//
compound: C#Cc1ccc(NC(=O)c2ccc(/C=C/C(=O)c3nccn3C)cc2)c(F)c1
class_label: YES
//
compound: C#C[C@]1(O)CC[C@H]2[C@@H]3CC=C4c5sc(Nc6ccc(OC)nc6)nc5CC[C@]4(C)[C@H]3CC[C@@]21C
class_label: YES
//
compound: CCOc1ccc2nc(NC(=O)Nc3ccccc3C)sc2c1
class_label: NO
//
compound: COC1=C(c2ccccc2)C(=O)C(OC)=C(c2ccccc2)C1=O
class_label: NO
